- protocol: in vitro
- condition_details: mouse, plasma, pH 7.4
readout: half-life at 2 μM (h)

Use the examples below as a reference point.
compound	endpoint_value
CCn1cc(C(=O)O)c(=O)c2cc(F)c(N3CCN(C(=O)OCc4ccc(NC(=O)[C@H](CNC(=N)N)NC(=O)[C@@H](NC(=O)CCCC(=O)N(C)C)C(C)C)cc4)CC3)cc21	1.4
CCn1cc(C(=O)O)c(=O)c2cc(F)c(N3CCN(C(=O)OCc4ccc(NC(=O)[C@H](CCCNC(N)=O)NC(=O)[C@@H](NC(=O)CCCC(=O)N(C)C)C(C)C)cc4)CC3)cc21 [BCY9422, reference compound]	0.4
CCn1cc(C(=O)O)c(=O)c2cc(F)c(N3CCN(C(=O)OCc4ccc(NC(=O)[C@H](CCCNC(N)=O)NC(=O)[C@@H](NC(=O)[C@H](CCC(=O)O)NC(=O)CCCC(=O)N(C)C)C(C)C)cc4)CC3)cc21	10.8

I: CCn1cc(C(=O)O)c(=O)c2cc(F)c(N3CCN(C(=O)OCc4ccc(NC(=O)[C@H](CCNC(=N)NC)NC(=O)[C@@H](NC(=O)CCCC(=O)N(C)C)C(C)C)cc4)CC3)cc21
II: CCn1cc(C(=O)O)c(=O)c2cc(F)c(N3CCN(C(=O)OCc4ccc(NC(=O)[C@H](CCN)NC(=O)[C@@H](NC(=O)CCCC(=O)N(C)C)C(C)C)cc4)CC3)cc21
Which one would you say has the larger half-life at 2 μM value: I , or II ? Lab note: record the label of whichever item you select.
II
(II: 4.3 h, I: 2.5 h)
